# experimental system: human CPT1A (Homo sapiens, UniProt P50416)
# Construct: made in house; host or cells: Saccharomyces cerevisiae (pESC-trp) or cultured mammalian cells (pCDNA3.1); mitochondrial extract
# assay notes: Human CPT1A LC/MS assay
# Type: biochemical
# cond: human CPT1A LC/MS assay, dose response format
pIC50: −log10 of the molar value.
A collection of compounds and their measured pIC50
endpoint name: pIC50

- compound: "C[N+]1(C)CCC(CC(=O)O)(NC(=O)c2ccc(C#Cc3ccccc3)o2)CC1 [Example S6, 2,2,2-trifluoroacetate]"
  experimental system: "human CPT1A (Homo sapiens, UniProt P50416)"
  value observed: "3.00 to 4.00"
- compound: "CCCCCCCCCCc1ccc(C(=O)NC2(CC(=O)O)CCN(C)C2)cc1 (centres unmarked) [Example S21, 2,2,2-trifluoroacetate]"
  experimental system: "human CPT1A (Homo sapiens, UniProt P50416)"
  value observed: "4.00 to 5.00"
- compound: "CCCCCc1ccc(S(=O)(=O)NC2(CC(=O)O)CCN(C)C2)cc1 (centres unmarked) [Example S19, 2,2,2-trifluoroacetate]"
  experimental system: "human CPT1A (Homo sapiens, UniProt P50416)"
  value observed: "3.00 to 4.00"
- compound: "CN1CCCC(CC(=O)O)(NC(=O)c2ccc(CCc3ccccc3)o2)C1 (centres unmarked) [Example S13, 2,2,2-trifluoroacetate]"
  experimental system: "human CPT1A (Homo sapiens, UniProt P50416)"
  value observed: "3.00 to 4.00"
- compound: "C[N+]1(C)CCC(CC(=O)O)(NC(=O)c2ccc(CCc3ccccc3)o2)CC1 [Example S5, 2,2,2-trifluoroacetate]"
  experimental system: "human CPT1A (Homo sapiens, UniProt P50416)"
  value observed: "5.00 to 6.00"
- compound: "CCCCCCCCc1ccc(NC(=O)NC2(CC(=O)O)C[N+](C)(C)C2)cc1 [Example S24, 2,2,2-trifluoroacetate]"
  experimental system: "human CPT1A (Homo sapiens, UniProt P50416)"
  value observed: "4.00 to 5.00"
- compound: "CCCCCCCCc1ccc(NC(=O)NC2(CC(=O)O)CCC[NH+](C)C2)cc1 (centres unmarked) [Example S9, 2,2,2-trifluoroacetate]"
  experimental system: "human CPT1A (Homo sapiens, UniProt P50416)"
  value observed: "4.00 to 5.00"
- compound: "CCCCCCCCc1ccc(NS(=O)(=O)NC2(CC(=O)O)CCC[N+](C)(C)C2)cc1 (centres unmarked) [Example S16, 2,2,2-trifluoroacetate]"
  experimental system: "human CPT1A (Homo sapiens, UniProt P50416)"
  value observed: "5.00 to 6.00"
- compound: "CCCCCCCCc1ccc(NC(=O)NC2(CC(=O)O)CNC2)cc1 [Example S23, 2,2,2-trifluoroacetate]"
  experimental system: "human CPT1A (Homo sapiens, UniProt P50416)"
  value observed: "2.60 to 3.00"
- compound: "CCCCCc1ccc(S(=O)(=O)NC2(CC(=O)O)CC[N+](C)(C)CC2)cc1 [Example S4, 2,2,2-trifluoroacetate]"
  experimental system: "human CPT1A (Homo sapiens, UniProt P50416)"
  value observed: "≥ 6.00"
- compound: "CCCCCCCCc1ccc(NS(=O)(=O)NC2(CC(=O)O)CC[N+](C)(C)CC2)cc1 [Example S8, 2,2,2-trifluoroacetate]"
  experimental system: "human CPT1A (Homo sapiens, UniProt P50416)"
  value observed: "5.00 to 6.00"
- compound: "CCCCCCCCc1ccc(NS(=O)(=O)NC2(CC(=O)O)CCCN(C)C2)cc1 (centres unmarked) [Example S15, 2,2,2-trifluoroacetate]"
  experimental system: "human CPT1A (Homo sapiens, UniProt P50416)"
  value observed: "4.00 to 5.00"
- compound: "CCCCCc1ccc(S(=O)(=O)NC2(CC(=O)O)C[N+](C)(C)C2)cc1 [Example S29, 2,2,2-trifluoroacetate]"
  experimental system: "human CPT1A (Homo sapiens, UniProt P50416)"
  value observed: "4.00 to 5.00"
- compound: "CCCCCc1ccc(S(=O)(=O)NC2(CC(=O)O)CCN(C)CC2)cc1 [Example S3, 2,2,2-trifluoroacetate]"
  experimental system: "human CPT1A (Homo sapiens, UniProt P50416)"
  value observed: "4.00 to 5.00"

###

# experimental system: human CPT1A (Homo sapiens)
# Construct: made in house; host or cells: Saccharomyces cerevisiae (pESC-trp) or cultured mammalian cells (pCDNA3.1); mitochondrial extract
# Sequence (P50416 1-773): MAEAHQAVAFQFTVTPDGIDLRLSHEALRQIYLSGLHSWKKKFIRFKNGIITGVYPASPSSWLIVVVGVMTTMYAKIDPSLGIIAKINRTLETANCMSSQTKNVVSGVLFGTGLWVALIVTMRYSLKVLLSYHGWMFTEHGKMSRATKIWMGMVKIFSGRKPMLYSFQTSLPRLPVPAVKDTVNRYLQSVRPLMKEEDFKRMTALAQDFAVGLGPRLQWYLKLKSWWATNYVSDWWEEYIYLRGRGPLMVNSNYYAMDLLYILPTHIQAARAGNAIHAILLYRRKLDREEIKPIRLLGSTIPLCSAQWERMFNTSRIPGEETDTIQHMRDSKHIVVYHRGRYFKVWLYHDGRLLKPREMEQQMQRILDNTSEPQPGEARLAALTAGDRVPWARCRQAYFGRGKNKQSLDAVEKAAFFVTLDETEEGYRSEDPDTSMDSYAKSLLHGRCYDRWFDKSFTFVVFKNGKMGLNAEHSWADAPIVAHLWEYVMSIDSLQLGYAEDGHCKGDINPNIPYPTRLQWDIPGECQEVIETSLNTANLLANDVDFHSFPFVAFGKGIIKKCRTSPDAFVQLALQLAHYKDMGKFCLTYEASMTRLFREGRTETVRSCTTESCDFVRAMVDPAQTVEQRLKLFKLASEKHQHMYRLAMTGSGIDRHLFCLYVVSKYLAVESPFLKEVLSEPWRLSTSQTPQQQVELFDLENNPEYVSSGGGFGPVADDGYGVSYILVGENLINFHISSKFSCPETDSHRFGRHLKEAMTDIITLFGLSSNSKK
# assay notes: Human CPT1A LC/MS assay
# Type: biochemical
# cond: human CPT1A LC/MS assay, dose response format
pIC50: −log10 of the molar value.
A collection of molecules and their measured pIC50

- molecule: "CCCCCc1ccc(S(=O)(=O)NC2(CC(=O)O)CN(C)C2)cc1 [Example S27, 2,2,2-trifluoroacetate]"
  pIC50: "4.00 to 5.00"
- molecule: "CCCCCCCCc1ccc(NC(=O)NC2(CC(=O)O)CCC[N+](C)(C)C2)cc1 (stereo not drawn) [Example S10, 2,2,2-trifluoroacetate]"
  pIC50: "4.00 to 5.00"
- molecule: "CCCCCCCCc1ccc(N(C)S(=O)(=O)NC2(CC(=O)O)CCC[N+](C)(C)C2)cc1 (stereo not drawn) [Example S30]"
  pIC50: "4.00 to 5.00"
- molecule: "C[N+]1(C)CCCC(CC(=O)O)(NC(=O)c2ccc(CCc3ccccc3)o2)C1 (stereo not drawn) [Example S14, 2,2,2-trifluoroacetate]"
  pIC50: "4.00 to 5.00"
- molecule: "CCCCCc1ccc(S(=O)(=O)NC2(CC(=O)O)CCCN(C)C2)cc1 (stereo not drawn) [Example S11, 2,2,2-trifluoroacetate]"
  pIC50: "5.00 to 6.00"
- molecule: "CCCCCCCCc1ccc(NC(=O)NC2(CC(=O)O)CC[N+](C)(C)CC2)cc1 [Example S2, 2,2,2-trifluoroacetate]"
  pIC50: "4.00 to 5.00"
- molecule: "CCCCCc1ccc(S(=O)(=O)NC2(CC(=O)O)CNC2)cc1 [Example S25, 2,2,2-trifluoroacetate]"
  pIC50: "< 2.60"
- molecule: "CCCCCCCCc1ccc(NS(=O)(=O)NC2(CC(=O)O)CNC2)cc1.O=C(O)C(F)(F)F [Example S28, 2,2,2-trifluoroacetate]"
  pIC50: "< 2.60"
- molecule: "CCCCCCCCc1ccc(NC(=O)NC2(CC(=O)O)CC[N+](C)(C)C2)cc1 (stereo not drawn) [Example S18, 2,2,2-trifluoroacetate]"
  pIC50: "4.00 to 5.00"
- molecule: "CCCCCCCCCCc1ccc(C(=O)NC2(CC(=O)O)CC[N+](C)(C)C2)cc1 (stereo not drawn) [Example S22, 2,2,2-trifluoroacetate]"
  pIC50: "5.00 to 6.00"
- molecule: "CCCCCc1ccc(S(=O)(=O)NC2(CC(=O)O)CC[N+](C)(C)C2)cc1 (stereo not drawn) [Example S20, 2,2,2-trifluoroacetate]"
  pIC50: "5.00 to 6.00"
- molecule: "CCCCCCCCc1ccc(NS(=O)(=O)NC2(CC(=O)O)CCN(C)CC2)cc1 [Example S7, 2,2,2-trifluoroacetate]"
  pIC50: "4.00 to 5.00"
- molecule: "O=C(O)CC1(NC(=O)c2ccc(C#Cc3ccccc3)o2)CNC1 [Example S26, 2,2,2-trifluoroacetate]"
  pIC50: "3.00 to 4.00"
- molecule: "CCCCCc1ccc(S(=O)(=O)NC2(CC(=O)O)CCC[N+](C)(C)C2)cc1 (stereo not drawn) [Example S12, 2,2,2-trifluoroacetate]"
  pIC50: "≥ 6.00"
- molecule: "CCCCCCCCc1ccc(NC(=O)NC2(CC(=O)O)CCN(C)C2)cc1 (stereo not drawn) [Example S17, 2,2,2-trifluoroacetate]"
  pIC50: "4.00 to 5.00"
